Sourced from ChEMBL document CHEMBL3885881

species: Rattus norvegicus; experiment: DrugMatrix - Regimen: Daily Repeat; format: toxicity, organism-based, Sprague-Dawley; parameters: regimen Daily Repeat, gender Male, age 6-8 weeks; details: in vivo, po, 0 mg/kg, 72 h, tissue Blood, route oral GAVAGE, dose level Control, time 3 day, vehicle 100 % SALINE
Exercise: for every item that follows, state its recorded MEAN CORPUSCULAR HEMOGLOBIN CONCENTRATION.
Kindly answer with a numeric value in G/DL, unit omitted.

[Q] If you can, please state the reported MEAN CORPUSCULAR HEMOGLOBIN CONCENTRATION value of CCO .
[A] 36.42

[Q] Any idea what its MEAN CORPUSCULAR HEMOGLOBIN CONCENTRATION is? The molecule is O=[As][O-].[Na+] [SODIUM ARSENITE]
[A] 36.42

[Q] What MEAN CORPUSCULAR HEMOGLOBIN CONCENTRATION value was documented for this molecule, CCN(CC)N=O ?
[A] 39.07

[Q] Form field: reported MEAN CORPUSCULAR HEMOGLOBIN CONCENTRATION of CC(CN1c2ccccc2Sc2ccccc21)N(C)C (stereo not given)
[A] 40.22

[Q] Looking for the measured MEAN CORPUSCULAR HEMOGLOBIN CONCENTRATION of Cc1ccnc2c1NC(=O)c1cccnc1N2C1CC1 , can you help?
[A] 38.98

###

species on record: Rattus norvegicus; assay: DrugMatrix - Regimen: Daily Repeat; format: toxicity, organism-based, Sprague-Dawley; set-up: regimen Daily Repeat, gender Male, age 6-8 weeks; conditions: in vivo, po, 0 mg/kg, 72 h, tissue Plasma, route oral GAVAGE, dose level Control, time 3 day, vehicle 100 % WATER
assayReadout: CARBON DIOXIDE (mmol/L)
Field format: number, assumed mmol/L, no unit text.

[Q] Entry under review: Cc1cn([C@H]2C=C[C@@H](CO)O2)c(=O)[nH]c1=O . Reported CARBON DIOXIDE?
[A] 32.83

[Q] GET /values?readout=CARBON DIOXIDE&item= NN [HYDRAZINE]
[A] 29.83

[Q] What does the record list as CARBON DIOXIDE for CC(Cl)(Cl)Cl ?
[A] 24.17

[Q] I am curious: what CARBON DIOXIDE value has been reported for C1CCN2C[C@@H]3C[C@@H](CN4CCCC[C@@H]34)[C@H]2C1 ?
[A] 24.17

[Q] Record request: CARBON DIOXIDE value, item CCN(CC)C(=S)SSC(=S)N(CC)CC
[A] 31.83

[Q] Which CARBON DIOXIDE is reported for this compound? CCC1(c2ccccc2)C(=O)NC(=O)NC1=O
[A] 34.17

[Q] Which value of CARBON DIOXIDE has been reported for Cc1cc(C(C)(C)C)c(O)c(C)c1CC1=NCCN1 in the records?
[A] 28.67

[Q] # input compound: C[N+](C)(C)CCOC(N)=O.[Cl-] ; wanted: its CARBON DIOXIDE
[A] 32.83

###

organism: Rattus norvegicus; assay: DrugMatrix - Regimen: Daily Repeat; assay type: toxicity, organism-based, Sprague-Dawley; set-up: regimen Daily Repeat, gender Male, age 6-8 weeks; settings: in vivo, po, 0 mg/kg, 72 h, tissue Plasma, route oral GAVAGE, dose level Control, time 3 day, […]
assayReadout: GLUCOSE
Your answer should be a number followed by the unit of measure.

[Q] Requested field: GLUCOSE. Item: CC(C)(c1ccc(O)cc1)c1ccc(O)cc1 [BISPHENOL A]
[A] 165.5 mg/dL

[Q] Endpoint output: GLUCOSE of CCC(C)(C)C(=O)O[C@H]1C[C@@H](C)C=C2C=C[C@H](C)[C@H](CC[C@@H]3C[C@@H](O)CC(=O)O3)[C@H]21 [SIMVASTATIN] . Value?
[A] 170.5 mg/dL

[Q] Any idea what its GLUCOSE is? The compound is CS(=O)(=O)c1ccc(C2=C(c3ccccc3)C(=O)OC2)cc1 [ROFECOXIB]
[A] 157.17 mg/dL

[Q] What value of GLUCOSE has been reported for the following compound? O=C(Nc1ccc(Cl)c(Cl)c1)c1cc(Cl)cc(Cl)c1O [3,3',4',5-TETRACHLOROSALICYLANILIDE]
[A] 167.5 mg/dL

###

species: Rattus norvegicus; assay: DrugMatrix - Regimen: Daily Repeat; type: toxicity, organism-based, Sprague-Dawley; parameters: regimen Daily Repeat, gender Male, age 6-8 weeks; conditions: in vivo, po, 0 mg/kg, 120 h, tissue Plasma, route oral GAVAGE, dose level Control, time 5 day, vehicle 100 % WATER
assayReadout: URIC ACID (mg/dL)
Number only, in mg/dL; omit the unit.

[Q] Which URIC ACID is listed for CCN(CC)C(=S)SSC(=S)N(CC)CC ?
[A] 1.7

[Q] Would you mind telling me what URIC ACID value was observed for NN [HYDRAZINE] ?
[A] 1.42

[Q] Using the record for C[N+](C)(C)CCOC(N)=O.[Cl-] , report its URIC ACID.
[A] 0.63

[Q] Can you share its URIC ACID? I mean this compound: CCC1(c2ccccc2)C(=O)NC(=O)NC1=O
[A] 0.62

[Q] Field request: URIC ACID | item: Cc1cn([C@H]2C=C[C@@H](CO)O2)c(=O)[nH]c1=O
[A] 0.63

[Q] Please look up its URIC ACID: CC(Cl)(Cl)Cl
[A] 0.93

[Q] For the compound C1CCN2C[C@@H]3C[C@@H](CN4CCCC[C@@H]34)[C@H]2C1 , what URIC ACID is on record?
[A] 0.93

[Q] Which URIC ACID value is on record for Cc1cc(C(C)(C)C)c(O)c(C)c1CC1=NCCN1 ?
[A] 1.52

###

species on record: Rattus norvegicus; experiment: DrugMatrix - Regimen: Daily Repeat; format: toxicity, organism-based, Sprague-Dawley; parameters: regimen Daily Repeat, gender Male, age 6-8 weeks; conditions: in vivo, po, 0 mg/kg, 72 h, tissue Plasma, route oral GAVAGE, dose level Control, time 3 day, […]
Provide the recorded CHOLESTEROL for the entries that follow.
Report as a plain number; the unit mg/dL is understood.

[Q] What measured CHOLESTEROL goes with Oc1ncnc2[nH]ncc12 ?
[A] 76.17

[Q] # input compound: COc1ccccc1OCCNCC(O)COc1cccc2[nH]c3ccccc3c12 (centres undefined) ; wanted: its CHOLESTEROL
[A] 75.17

[Q] Which CHOLESTEROL value belongs to CS(=O)(=O)c1ccc(C2=C(c3ccccc3)C(=O)OC2)cc1 ?
[A] 70.5

[Q] Given the compound CO[C@H]1O[C@@H]2O[C@@]3(C)CC[C@H]4[C@H](C)CC[C@@H]([C@H]1C)[C@@]24OO3 , what is its reported CHOLESTEROL?
[A] 73.33

[Q] Requested field: CHOLESTEROL. Item: Cc1cccc(C)c1NC(=O)C(C)N (centres undefined) [TOCAINIDE]
[A] 82.5

[Q] Bench note: what CHOLESTEROL did CCC(C)(C)C(=O)O[C@H]1C[C@@H](C)C=C2C=C[C@H](C)[C@H](CC[C@@H]3C[C@@H](O)CC(=O)O3)[C@H]21 show?
[A] 71.33

[Q] Any idea what its CHOLESTEROL is? The compound is CCOC(=O)C1=C(C)NC(C)=C(C(=O)OCC)C1c1ccccc1/C=C/C(=O)OC(C)(C)C
[A] 68.5

[Q] Which CHOLESTEROL value is on record for O=C(O)COC(=O)Cc1ccccc1Nc1c(Cl)cccc1Cl ?
[A] 75.17

[Q] Give its CHOLESTEROL value. Item: COC(=O)Nc1nc2ccc(C(=O)c3ccccc3)cc2[nH]1
[A] 75.17

###

species: Rattus norvegicus; assay: DrugMatrix - Regimen: Daily Repeat; assay type: toxicity, organism-based, Sprague-Dawley; set-up: regimen Daily Repeat, gender Male, age 6-8 weeks; settings: in vivo, po, 0 mg/kg, 72 h, tissue Plasma, route oral GAVAGE, dose level Control, time 3 day, vehicle 100 % WATER
Tick TRUE if ALANINE AMINOTRANSFERASE is 50 u/L or greater. Tick FALSE if ALANINE AMINOTRANSFERASE is less than 50 u/L.

[Q] Could you tell me if the measured ALANINE AMINOTRANSFERASE of CN1C(=O)OC(C)(C)C1=O reaches 50 u/L or more?
[A] FALSE

[Q] Decide: ALANINE AMINOTRANSFERASE of Cc1cc(C(C)(C)C)c(O)c(C)c1CC1=NCCN1 >= 50 u/L?
[A] FALSE

[Q] State whether the measured ALANINE AMINOTRANSFERASE reaches 50 u/L, counting equality as reaching it, for CCN(CC)C(=S)SSC(=S)N(CC)CC
[A] TRUE

[Q] Hello, I need to know if C1CCN2C[C@@H]3C[C@@H](CN4CCCC[C@@H]34)[C@H]2C1 has measured ALANINE AMINOTRANSFERASE not below 50 u/L. Thanks!
[A] FALSE

[Q] Is reported ALANINE AMINOTRANSFERASE greater than or equal to 50 u/L here: CC(Cl)(Cl)Cl
[A] FALSE

[Q] Given NN [HYDRAZINE] , state whether its ALANINE AMINOTRANSFERASE is at least 50 u/L.
[A] TRUE

[Q] Does CCC1(c2ccccc2)C(=O)NC(=O)NC1=O have a reported ALANINE AMINOTRANSFERASE of at least 50 u/L?
[A] TRUE
